# Test system: OVCAR-8 ovarian
# assay.info: NCI tumour cell line growth inhibition, 48 h; in the data active = GI50 below about 0.43 µM; inactive = the rest
Give your call using only these classes: active, inactive

[Q] What is the recorded call for this molecule in the test? COc1cc(C2c3cc4c(cc3C(OC(=O)C[n+]3ccccc3)C3COC(=O)C23)OCO4)cc(OC)c1OC (configuration not stated)
[A] active

[Q] Follow-up item: Cc1cc(C)c(-c2c(N)cc(Br)cc2Br)c(N)c1
[A] inactive

====

Entries annotated with measured TGI
# Tested on: MDA-MB-435
# assay.info: NCI tumour cell line growth inhibition, 48 h
Give the number; µM is assumed, so skip it.

// known answers, use as guide
CCOc1ccn(-c2ccc(F)cc2)c(=O)c1C(=O)Nc1ccc(Oc2ccnc(N)c2Cl)c(F)c1 ... 42.6
O=C(CCN1CCCCC1)N1CCc2c([nH]c3ccccc23)C1c1cccnc1 (stereo not given) ... 75.1

[Q] Item CCNC(=O)Oc1ccc(/C(=C(/C)Cc2ccc(OC)cc2)c2ccc(OCCN(CC)CC)cc2)cc1 with MDA-MB-435 - TGI?
[A] 3.18

[Q] Follow-up item: Cc1cccc2sc(-c3ccc(O)cc3)nc12
[A] 26.8

[Q] Follow-up item: COc1ccc2c(c1)/C(=C\c1c(Cl)[nH]c3ccccc13)C(=O)N2
[A] 3.82

[Q] Follow-up item: Nc1nc(/C=C\c2ccccc2)nc(N2CCN(c3ccccc3)CC2)n1
[A] 70.2
